Every entry's value here was drawn from patent US20230014907A1.

# assayed system: G1 APOL1 (Homo sapiens, UniProt O14791, I384M/S342G)
# Construct: expressed in transfected cells
# Sequence (O14791 28-398 S342G/I384M): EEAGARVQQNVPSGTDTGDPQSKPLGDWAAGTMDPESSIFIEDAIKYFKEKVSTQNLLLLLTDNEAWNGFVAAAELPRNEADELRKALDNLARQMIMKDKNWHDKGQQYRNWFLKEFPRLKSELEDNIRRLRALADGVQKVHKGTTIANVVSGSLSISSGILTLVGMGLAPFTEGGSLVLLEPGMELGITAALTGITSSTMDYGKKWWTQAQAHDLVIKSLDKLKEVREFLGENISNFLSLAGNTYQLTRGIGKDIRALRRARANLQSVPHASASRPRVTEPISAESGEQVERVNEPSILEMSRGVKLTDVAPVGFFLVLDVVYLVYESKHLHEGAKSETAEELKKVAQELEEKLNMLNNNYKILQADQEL
# protocol text: Acute APOL1 Thallium Assay with Inducible Stable Clones of HEK 293 Cells
# Type: cell-based
# reported conditions: HEK 293 inducible stable clones, G1 APOL1; read-out: Thallium Assay (IC50)
pIC50: −log10 of the molar value.
result type: pIC50

{"compound": "O=C(NCCc1c(-c2ccc(F)cc2)[nH]c2c(F)cc(F)cc12)N[C@H](CO)C(F)(F)F [Compound 262]", "result type": "pIC50", "assay result": "> 6.60"}
{"compound": "CC(C)(O)C(=O)NCCc1c(-c2ccc(F)cc2)[nH]c2c(F)cc(F)cc12 [Compound 355]", "result type": "pIC50", "assay result": "< 6.00"}
{"compound": "O=C(/C=C/c1c(-c2ccc(F)cc2)[nH]c2c(F)ccc(F)c12)N[C@H]1CCNC1=O [Compound 520]", "result type": "pIC50", "assay result": "< 6.00"}
{"compound": "NC(=O)[C@@H](CO)NC(=O)CCc1c(-c2ccc(F)cc2)[nH]c2c(F)cc(F)cc12 [Compound 98]", "result type": "pIC50", "assay result": "6.00 to 6.60"}
{"compound": "CS(=O)(=O)NCC(=O)NCCc1c(-c2ccc(F)cc2)[nH]c2c(F)cc(F)cc12 [Compound 321]", "result type": "pIC50", "assay result": "< 6.00"}
{"compound": "O=C(CCc1c(-c2ccc(F)cc2)[nH]c2c(F)cc(F)cc12)NC1=CCNC1=O [Compound 94]", "result type": "pIC50", "assay result": "< 6.00"}
{"compound": "O=C1NC(=O)C(CCS(=O)(=O)NCCc2c(-c3ccc(F)cc3)[nH]c3c(F)cc(F)cc23)N1 (stereo not drawn) [Compound 420]", "result type": "pIC50", "assay result": "< 6.00"}
{"compound": "O=C(CCc1c(-c2ccc(F)cc2)[nH]c2c(F)cc(F)cc12)Nc1ccon1 [Compound 160]", "result type": "pIC50", "assay result": "< 6.00"}
{"compound": "O=C(CCc1c(-c2ccc(F)cc2)[nH]c2c(F)cc(F)cc12)N1CCC[C@@H]1CO [Compound 117]", "result type": "pIC50", "assay result": "< 6.00"}
